- Tested on: G401
- methodSummary: relative viability vs DMSO control (72 h) (fraction); higher = more viable cells
- measurementConditions: 3.333 µM
Provide the reported relative viability of each item.
One number for each entry.

- structureSmilesString: "Cc1cccc(-c2[nH]c(CNc3ccccc3F)nc2-c2ccc3ncnn3c2)n1"
  relative viability: 0.967
- structureSmilesString: "CO[C@H]1C[C@@H]2CC[C@@H](C)[C@@](O)(O2)C(=O)C(=O)N2CCCC[C@H]2C(=O)O[C@H]([C@H](C)C[C@@H]2CC[C@@H](O)[C@H](OC)C2)CC(=O)[C@H](C)/C=C(\\C)[C@@H](O)[C@@H](OC)C(=O)[C@H](C)C[C@H](C)/C=C/C=C/C=C/1C"
  relative viability: 0.613

Lab note: next compound to report on.
Please supply the value of reported relative viability for the item Cc1cn(-c2cc(NC(=O)c3ccc(C)c(Nc4nccc(-c5cnccn5)n4)c3)cc(C(F)(F)F)c2)cn1 0.984

====

Provide the reported standardised AUC of each item.
- Test system: HS729
- methodSummary: standardised AUC of viability dose-response curve (72 h) (fraction (0-1)); higher = less growth inhibition (more resistant)

- molecule: "COc1cc2ncnc(Nc3ccc(F)c(Cl)c3)c2cc1NC(=O)/C=C/CN1CCCCC1"
  reportedMeasurement: 0.907
- molecule: "CCN(CCCOc1ccc2c(Nc3cc(CC(=O)Nc4cccc(F)c4)[nH]n3)ncnc2c1)CCOP(=O)(O)O"
  reportedMeasurement: 0.928
- molecule: "COc1cc2c(Oc3ccc4[nH]c(C)cc4c3F)ccnc2cc1OCC1(N)CC1"
  reportedMeasurement: 0.909
- molecule: "CN1CCN(CCOc2cc(OC3CCOCC3)c3c(Nc4c(Cl)ccc5c4OCO5)ncnc3c2)CC1"
  reportedMeasurement: 0.849
- molecule: "CO[C@@H]1[C@H](N(C)C(=O)c2ccccc2)C[C@H]2O[C@]1(C)n1c3ccccc3c3c4c(c5c6ccccc6n2c5c31)C(=O)NC4"
  reportedMeasurement: 0.796

List the reported standardised AUC of each molecule below.
1. C=CC(=O)Nc1cc(Nc2nccc(-c3cn(C)c4ccccc34)n2)c(OC)cc1N(C)CCN(C)C
2. COc1cc2nccc(Oc3ccc(NC(=O)C4(C(=O)Nc5ccc(F)cc5)CC4)cc3)c2cc1OC [CABOZANTINIB]
3. CCN(c1cc(-c2ccc(CN3CCOCC3)cc2)cc(C(=O)NCc2c(C)cc(C)[nH]c2=O)c1C)C1CCOCC1

1: 0.874; 2: 0.809; 3: 0.946

====

- Test system: G401
- methodSummary: relative viability vs DMSO control (72 h) (fraction); higher = more viable cells
- measurementConditions: 0.00152 µM
Provide the reported relative viability of each item.
Answers are plain numbers.

These solved cases illustrate the format of a correct answer.
- structureSmilesString: "CO[C@@H]1[C@H](N(C)C(=O)c2ccccc2)C[C@H]2O[C@]1(C)n1c3ccccc3c3c4c(c5c6ccccc6n2c5c31)C(=O)NC4"
  relative viability: 0.98
- structureSmilesString: "Cc1cc(Nc2ncc(Cl)c(Nc3ccccc3S(=O)(=O)C(C)C)n2)c(OC(C)C)cc1C1CCNCC1"
  relative viability: 0.971

List the reported relative viability of each compound below.
1. COc1cc(OC)cc(N(CCNC(C)C)c2ccc3ncc(-c4cnn(C)c4)nc3c2)c1
2. Cc1ccc(C(=O)OCc2ccc([C@@H](CN)C(=O)Nc3ccc4cnccc4c3)cc2)c(C)c1
3. CCN(c1cc(-c2ccc(CN3CCOCC3)cc2)cc(C(=O)NCc2c(C)cc(C)[nH]c2=O)c1C)C1CCOCC1
4. COc1cc(Nc2c(C#N)cnc3cc(OCCCN4CCN(C)CC4)c(OC)cc23)c(Cl)cc1Cl
5. C#Cc1cccc(Nc2ncnc3cc(OCCOC)c(OCCOC)cc23)c1

[0.933, 0.977, 1, 1.08, 1.02]
